target: SARS-CoV-2 PLpro (nsp3 1564–1878) (Severe acute respiratory syndrome coronavirus 2, UniProt P0DTD1); test: biochemical; format: biochemical; conditions: fluorescent-based assay; listed as dihydrotanshione I
REPORTED ENDPOINT: pIC50
Formally, pIC50 is defined as -log10 of the concentration c, with c in mol/L.

(Q) Consider the molecule Cc1cccc2c3c(ccc12)C1=C(C(=O)C3=O)[C@@H](C)CO1 [Dihydrotanshinone I] and give its measured pIC50.
(A) 6.23

====

molecular target: SARS-CoV-2 PLpro (nsp3 1564–1878) (Severe acute respiratory syndrome coronavirus 2); test: biochemical; set-up: FRET-quenched peptide (Pro3) cleavage by PLpro, 10 min pre-incubation, slope over 20 min, normalised to no-compound control; settings: read-out: % of control remaining
Counter-ions that a name gives are not always drawn.
# remaining activity at 1.25 µM annotations
# unit: % | format: bare number

Known remaining activity at 1.25 µM results, listed for orientation:
COMPOUND	TARGET OF ASSAY	UNITS	RECORDED NUMBER
C=C(C)[C@@H]1[C@H]2OC(=O)[C@@H]1[C@]1(O)C[C@H]3O[C@]34C(=O)O[C@H]2[C@]14C	SARS-CoV-2 PLpro (nsp3 1564–1878) (Severe acute respiratory syndrome coronavirus 2)	%	101
CC(C(=O)O)C(=O)O [Methylmalonate]	SARS-CoV-2 PLpro (nsp3 1564–1878) (Severe acute respiratory syndrome coronavirus 2)	%	100
CSCC[C@H](NC(=O)[C@H](Cc1ccccc1)NC(=O)CNC(=O)CNC(=O)[C@@H](N)Cc1ccc(O)cc1)C(=O)O	SARS-CoV-2 PLpro (nsp3 1564–1878) (Severe acute respiratory syndrome coronavirus 2)	%	98.2
CN1C2CCC1CC(NC(=O)c1nn(C)c3ccccc13)C2 (stereo not drawn) [LY-278,584 maleate]	SARS-CoV-2 PLpro (nsp3 1564–1878) (Severe acute respiratory syndrome coronavirus 2)	%	98.8
CCN1C[C@]2(COC)[C@H](O)C[C@H](OC)[C@@]34[C@@H]5C[C@@]6(O)[C@H](OC(=O)c7ccccc7)[C@@H]5[C@@](OC(C)=O)([C@@H]([C@H](OC)[C@H]23)[C@@H]14)[C@@H](O)[C@@H]6OC	SARS-CoV-2 PLpro (nsp3 1564–1878) (Severe acute respiratory syndrome coronavirus 2)	%	96
O=C1C[C@@H]2OCC=C3CN4CC[C@]56c7ccccc7N1[C@H]5[C@H]2[C@H]3C[C@H]46	SARS-CoV-2 PLpro (nsp3 1564–1878) (Severe acute respiratory syndrome coronavirus 2)	%	94.4
CN1C(=O)C(Cc2ccc3ccccc3c2)N=C(c2ccc(O)cc2)c2cc(Cl)ccc21 (stereo not drawn)	SARS-CoV-2 PLpro (nsp3 1564–1878) (Severe acute respiratory syndrome coronavirus 2)	%	96.5
C[C@@H]1Cc2c(Cl)cc(C(=O)N[C@@H](Cc3ccccc3)C(=O)O)c(O)c2C(=O)O1	SARS-CoV-2 PLpro (nsp3 1564–1878) (Severe acute respiratory syndrome coronavirus 2)	%	92.5

(Q) Consider the compound CC1(C)CC(O)CC(C)(C)N1[O] and give its measured remaining activity at 1.25 µM.
(A) 93.1

(Q) Consider the compound Cc1ccccc1CN1C(=O)C2=C(CCN(Cc3ccccc3)C2)N2CCN=C12 and give its measured remaining activity at 1.25 µM.
(A) 97.7

(Q) Consider the compound CCCC(C)(C)c1ccc2c(c1)OC(C)(C)[C@@H]1CC=C(C)C[C@@H]21 and give its measured remaining activity at 1.25 µM.
(A) 102

(Q) Consider the compound Cc1ccc(C)c(OCCn2cc(C(=O)O)c3ccccc32)c1 and give its measured remaining activity at 1.25 µM.
(A) 98.4

(Q) Consider the compound C[C@]12Cc3c[nH]nc3C[C@@H]1CC[C@@H]1[C@@H]2CC[C@@]2(C)[C@H]1CC[C@]2(C)O and give its measured remaining activity at 1.25 µM.
(A) 94

(Q) Consider the compound COC(=O)C1=C(C)NC(C)=C(C(=O)OCCCN2CCC(c3ccccc3)(c3ccccc3)CC2)[C@H]1c1cccc([N+](=O)[O-])c1 and give its measured remaining activity at 1.25 µM.
(A) 105

(Q) Consider the compound C[C@]12CC[C@H](O)C[C@H]1CC[C@@H]1[C@@H]2CC[C@]2(C)[C@@H](C3=CC(=O)OC3)[C@@H](O)C[C@]12O and give its measured remaining activity at 1.25 µM.
(A) 105
